biological target: Amine oxidase [flavin-containing] B (Homo sapiens, UniProt P27338); test: Inhibition of MAO-B (unknown origin)
readout.label: pIC50
Remember, pIC50 is on a log scale: it is -log10 of the molar concentration.

Any idea what its pIC50 is? The compound is `O=c1c(Cc2ccc(Cl)cc2)coc2cc(Cl)cc(Cl)c12`
6.36

====

Molecular target: Amine oxidase [flavin-containing] B (Homo sapiens)
Sequence (P27338 whole entry): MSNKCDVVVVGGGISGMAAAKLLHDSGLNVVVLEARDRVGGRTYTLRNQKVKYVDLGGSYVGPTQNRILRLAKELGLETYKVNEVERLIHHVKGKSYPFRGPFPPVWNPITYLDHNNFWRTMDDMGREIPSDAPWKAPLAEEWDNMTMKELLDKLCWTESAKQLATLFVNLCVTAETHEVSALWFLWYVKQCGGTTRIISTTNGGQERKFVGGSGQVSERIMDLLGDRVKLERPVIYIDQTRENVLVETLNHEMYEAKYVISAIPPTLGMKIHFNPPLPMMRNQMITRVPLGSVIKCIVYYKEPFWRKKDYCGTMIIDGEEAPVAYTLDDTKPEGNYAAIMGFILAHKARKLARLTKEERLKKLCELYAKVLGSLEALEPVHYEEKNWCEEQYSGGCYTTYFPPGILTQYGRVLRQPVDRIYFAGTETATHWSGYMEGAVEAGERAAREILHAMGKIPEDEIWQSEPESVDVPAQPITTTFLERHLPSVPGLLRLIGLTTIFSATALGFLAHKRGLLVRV
Test: Inhibition of MAO-B (unknown origin) using p-tyramine substrate by HPLC method
Entries whose IC50 is below 20 µM take true (1); entries at or above 20 µM take false (0).

In [3]: df
Out[3]:
                                chem_smiles   category
0   COc1ccccc1C(=O)/C=C/C1=Cc2cc(Br)ccc2OC1  false (0)
1  COc1cc(/C=C/C(=O)C2=Cc3cc(OC)ccc3OC2)cc(OC)c1   true (1)
2  COc1ccc2c(c1)C=C(/C=C/C(=O)c1ccccc1OC)CO2   true (1)

Given the entry `COc1cc(OC)cc(C(=O)/C=C/C2=Cc3cc(Br)ccc3OC2)c1` , would its reported IC50 be below 20 µM?
true (1)

Given the entry `COc1cccc(C(=O)/C=C/C2=Cc3cc(Br)ccc3OC2)c1` , would its reported IC50 be below 20 µM?
false (0)

====

target: Amine oxidase [flavin-containing] B (Homo sapiens, UniProt P27338); assay: Inhibition of human recombinant MAO-B expressed in insect cells by Amplex Red assay; type: cell-based
readout.label: IC50 (nM)
# output: bare number, implied unit nM

Any idea what its IC50 is? The molecule is `COc1ccc2c(c1)C=C(/C=C/C(=O)c1ccccc1OC)CO2`
320
